# Experiment: Intrinsic clearance in mouse liver microsomes
# Format: ADME, Microsome
Where CLH equals or exceeds 10 mL/min/g, the correct label is True; where it does not, the label is False.

1) COc1ccc(CNC(=O)c2ncc3cccnc3c2O)cc1    False
2) COc1ccc(CNC(=O)c2nn(C)c3cccnc3c2=O)cc1    False
3) C[C@@H](NC(=O)c1cn(C)c2cccnc2c1=O)c1ccc(F)cc1    False
4) O=C1CCCN1Cc1n[nH]c(-c2ncc3cccnc3c2O)n1    False
5) Oc1c(-c2nnc(Cc3ccc(Cl)cc3)[nH]2)ncc2cccnc12    True
6) Cc1n[nH]c(-c2ncc3cccnc3c2O)n1    False
7) CNC(=O)c1nc(-c2ccccc2OC)c2cccnc2c1O    False
8) O=C(NCc1ccc(Cl)cc1)c1nc(N2CCOCC2)c2cccnc2c1O    True
9) COc1ccccc1-c1nc(C(=O)N[C@H](C)c2ccc(F)cc2)c(O)c(=O)n1C    False
10) O=C(NCc1ccc(Cl)cc1)c1ncc2ccccc2c1O    True
11) Cc1n[nH]c(-c2nc(N(C)C)c3cccnc3c2O)n1    True
